Record form. Attribute: fold change (FC). Fill in for each entry.
# TESTED_SYSTEM: Tyrosyl-DNA phosphodiesterase 1 (Homo sapiens, UniProt Q9NUW8)
# Sequence (Q9NUW8 whole entry): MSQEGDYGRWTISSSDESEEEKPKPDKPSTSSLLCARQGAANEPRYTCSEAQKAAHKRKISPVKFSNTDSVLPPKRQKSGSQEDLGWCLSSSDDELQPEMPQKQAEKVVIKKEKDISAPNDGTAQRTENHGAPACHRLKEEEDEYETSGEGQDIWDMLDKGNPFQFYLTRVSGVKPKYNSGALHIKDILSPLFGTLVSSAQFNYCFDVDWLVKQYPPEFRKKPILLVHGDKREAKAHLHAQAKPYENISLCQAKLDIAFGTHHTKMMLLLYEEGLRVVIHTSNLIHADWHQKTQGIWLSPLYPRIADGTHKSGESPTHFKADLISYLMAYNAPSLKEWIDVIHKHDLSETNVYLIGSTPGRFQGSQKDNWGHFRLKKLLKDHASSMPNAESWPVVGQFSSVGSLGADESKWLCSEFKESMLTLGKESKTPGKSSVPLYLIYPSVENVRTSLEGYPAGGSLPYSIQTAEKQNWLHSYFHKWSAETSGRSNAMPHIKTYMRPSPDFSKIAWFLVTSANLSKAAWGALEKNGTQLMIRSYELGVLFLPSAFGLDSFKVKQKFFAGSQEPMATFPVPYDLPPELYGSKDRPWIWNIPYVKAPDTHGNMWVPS
# PROCEDURE_TEXT: Inhibition of TDP1 in human A549 cells assessed as potentiation of camptothecin-induced cytotoxicity by measuring fold reduction in camptothecin CC50 at 0.5 uM after 72 hrs by MTT assay relative to camptothecin alone
# Type: cell-based
Answers are plain numbers.

Solved cases (3 shown):
MOLECULE: CC(=O)c1c(O)c(C)c(O)c2c1OC1=CC(=O)/C(=C(/C)Nc3cccc(Br)c3)C(=O)C12C (centres undefined)
fold change (FC): 1.2
--
MOLECULE: CC(=O)c1c(O)c(C)c(O)c2c1OC1=CC(=O)/C(=C(/C)NCCc3ccc(O)cc3)C(=O)[C@@]12C
fold change (FC): 1.3
--
MOLECULE: CC(=O)c1c(O)c(C)c(O)c2c1OC1=CC(=O)/C(=C(/C)NCCCc3cc(C(C)(C)C)c(O)c(C(C)(C)C)c3)C(=O)C12C (centres undefined)
fold change (FC): 3.5

Consider the additional molecule presented here.
For the molecule CC(=O)c1c(O)c(C)c(O)c2c1OC1=CC(=O)/C(=C(/C)Nc3cccc(F)c3)C(=O)C12C (centres undefined) , what fold change (FC) is on record?
1.6

###

# TESTED_SYSTEM: Tyrosyl-DNA phosphodiesterase 1 (Homo sapiens, UniProt Q9NUW8)
# PROCEDURE_TEXT: Inhibition of recombinant TDP1 (unknown origin) using 5'-(5,6 FAM-aac gtc agg gtc ttc c-BHQ1)-3' as substrate measured at 1 min interval by fluorimetric method
pIC50: −log10 of the molar value.
Please use t whenever pIC50 is not below 6, and f whenever it is.

I'd appreciate it if you could say whether CC(=O)C1=C(O)C=C2Oc3c(C(C)=O)c(O)c(C)c(O)c3[C@@]2(C)C1=O [(+)-USNIC ACID] has pIC50 at least equal to 6.
f

Would you kindly repeat that for CC(=O)c1c(O)c(C)c(O)c2c1OC1=CC(=O)/C(=C(/C)Nc3ccc(Cl)cc3)C(=O)[C@@]12C ?
f

Same question for CC(=O)C1=C(O)C=C2Oc3c(C(C)=O)c(O)c(C)c(O)c3[C@]2(C)C1=O [(-)-USNIC ACID] please.
f

What about this molecule? CC(=O)c1c(O)c(C)c(O)c2c1OC1=CC(=O)/C(=C(/C)Nc3ccc(Br)cc3)C(=O)[C@@]12C
t

What about CC(=O)c1c(O)c(C)c(O)c2c1OC1=CC(=O)/C(=C(/C)Nc3ccc(Br)cc3)C(=O)[C@]12C ?
t

###

For each entry below, report its IC50 value.
# TESTED_SYSTEM: Tyrosyl-DNA phosphodiesterase 1 (Homo sapiens, UniProt Q9NUW8)
# PROCEDURE_TEXT: Inhibition of recombinant TDP1 (unknown origin) using 5'-(5,6 FAM-aac gtc agg gtc ttc c-BHQ1)-3' as substrate measured at 1 min interval by fluorimetric method
Numbers only, in nM.

Recorded results for 2 compounds are shown here.
COMPOUND: CC(=O)c1c(O)c(C)c(O)c2c1OC1=CC(=O)/C(=C(/C)Nc3ccc(F)cc3)C(=O)[C@]12C
TESTED_SYSTEM: Tyrosyl-DNA phosphodiesterase 1 (Homo sapiens, UniProt Q9NUW8)
ENDPOINT_UNIT: nM
IC50: 940
//
COMPOUND: CC(=O)c1c(O)c(C)c(O)c2c1OC1=CC(=O)/C(=C(/C)Nc3ccccc3)C(=O)[C@]12C
TESTED_SYSTEM: Tyrosyl-DNA phosphodiesterase 1 (Homo sapiens, UniProt Q9NUW8)
ENDPOINT_UNIT: nM
IC50: 1920

# lookup: IC50 of CC(=O)c1c(O)c(C)c(O)c2c1OC1=CC(=O)/C(=C(/C)NCCc3cc(C(C)(C)C)c(O)c(C(C)(C)C)c3)C(=O)C12C (centres undefined)
190
